- System: normal primary NK cells, pool 1 (3 donors) (IL-2 2.5 ng/mL)
- measurement_protocol: percent inhibition of viability; higher = more inhibition
- test_context: 72 h; 10000 nM
Record form. Attribute: percent inhibition of viability. Fill in for each entry.
Could you give me the number in %? Just the number is fine.

For record CNC(=O)c1cccc2cc(Oc3ccnc4cc(OCC5(N)CC5)c(OC)cc34)ccc12 [Lucitanib] (max concentration tested 10000 nM) the listed percent inhibition of viability is 5.53

For record Cc1sc2c(c1C)C(c1ccc(Cl)cc1)=N[C@@H](CC(=O)Nc1ccc(O)cc1)c1nnc(C)n1-2 [OTX015] (max concentration tested 10000 nM) the listed percent inhibition of viability is 80.1

For record O=C(O)c1ccc(Nc2ncc3c(n2)-c2ccc(Cl)cc2C(c2c(F)cccc2F)=NC3)cc1 [MLN-8054] (max concentration tested 10000 nM) the listed percent inhibition of viability is 3.94

---

Record form. Attribute: drug sensitivity score. Fill in for each entry.
- Tested on: KAI3 (IL-2 2.5 ng/mL)
- measurement_protocol: drug sensitivity score (DSS) (DSS units); higher = more sensitive; extreme values may be limits of the assay
- test_context: 72 h
Write no unit; give the number alone.

# value of drug sensitivity score, KAI3 (IL-2 2.5 ng/mL), item COCC1(CO)C(=O)C2CCN1CC2 (configuration not stated) [APR-246] (max concentration tested 10000 nM) = 0.58

# value of drug sensitivity score, KAI3 (IL-2 2.5 ng/mL), item COC(=O)c1ccc2c(c1)NC(=O)/C2=C(\Nc1ccc(N(C)C(=O)CN2CCN(C)CC2)cc1)c1ccccc1 [Nintedanib] (max concentration tested 10000 nM) = 7.87

# value of drug sensitivity score, KAI3 (IL-2 2.5 ng/mL), item S=P(N1CC1)(N1CC1)N1CC1 [Thio-TEPA] (max concentration tested 50000 nM) = 8.32

# value of drug sensitivity score, KAI3 (IL-2 2.5 ng/mL), item O=S(=O)(c1cccc2c(O)nccc12)N1CCCNCC1 [Hydroxyfasudil] (max concentration tested 37500 nM) = 1.06

# value of drug sensitivity score, KAI3 (IL-2 2.5 ng/mL), item FC(F)(F)c1ccc(/C=C/c2nc(COc3ccc(CCCCn4ccnn4)cc3)co2)cc1 [Mubritinib] (max concentration tested 1000 nM) = 5.59

# value of drug sensitivity score, KAI3 (IL-2 2.5 ng/mL), item CC[C@@H]1C(=O)OC[C@@H]1Cc1cncn1C [Pilocarpine] (max concentration tested 40000 nM) = 0.01

# value of drug sensitivity score, KAI3 (IL-2 2.5 ng/mL), item COc1cc([C@@H]2c3cc4c(cc3[C@@H](O[C@@H]3O[C@@H]5CO[C@@H](c6cccs6)O[C@H]5[C@H](O)[C@H]3O)[C@H]3COC(=O)[C@H]23)OCO4)cc(OC)c1O [Teniposide] (max concentration tested 10000 nM) = 29.9

# value of drug sensitivity score, KAI3 (IL-2 2.5 ng/mL), item Cc1cc(C(C)Nc2ccccc2)c2nc(N3CCOCC3)cc(=O)n2c1 (configuration not stated) [TGX-221] (max concentration tested 10000 nM) = 1.55

# value of drug sensitivity score, KAI3 (IL-2 2.5 ng/mL), item O=NN(CCCl)C(=O)NCCCl [Carmustine] (max concentration tested 10000 nM) = 0

# value of drug sensitivity score, KAI3 (IL-2 2.5 ng/mL), item CO[C@H]1C[C@@H]2CC[C@@H](C)[C@@](O)(O2)C(=O)C(=O)N2CCCC[C@H]2C(=O)O[C@H]([C@H](C)C[C@@H]2CC[C@@H](OC(=O)C(C)(CO)CO)[C@H](OC)C2)CC(=O)[C@H](C)/C=C(\C)[C@@H](O)[C@@H](OC)C(=O)[C@H](C)C[C@H](C)/C=C/C=C/C=C/1C [Temsirolimus] (max concentration tested 100 nM) = 14.2

# value of drug sensitivity score, KAI3 (IL-2 2.5 ng/mL), item Cc1[nH]c2ccccc2c1CCNCc1ccc(/C=C/C(=O)NO)cc1 [Panobinostat] (max concentration tested 1000 nM) = 26

# value of drug sensitivity score, KAI3 (IL-2 2.5 ng/mL), item CN(c1ncccc1CNc1nc(Nc2ccc3c(c2)CC(=O)N3)ncc1C(F)(F)F)S(C)(=O)=O (max concentration tested 10000 nM) = 7.77

---

Record form. Attribute: percent inhibition of viability. Fill in for each entry.
- Test system: normal NK cells expanded with K562-aAPC
- measurement_protocol: percent inhibition of viability; higher = more inhibition
- test_context: 72 h; IL-2 2.5 ng/mL; 100 nM
Could you give me the number in %? Just the number is fine.

For record O=c1[nH]c(=O)n([C@H]2C[C@H](O)[C@@H](CO)O2)cc1F [Floxuridine] (max concentration tested 10000 nM) the listed percent inhibition of viability is 25.1

For record NC(=O)c1ccc(I)c([N+](=O)[O-])c1 [Iniparib] (max concentration tested 10000 nM) the listed percent inhibition of viability is 0.33

For record O=NN(CCCl)C(=O)NCCCl [Carmustine] (max concentration tested 10000 nM) the listed percent inhibition of viability is -3.23

For record CN1CC[C@H](c2c(O)cc(O)c3c(=O)cc(-c4ccccc4Cl)oc23)[C@H](O)C1 [Alvocidib] (max concentration tested 10000 nM) the listed percent inhibition of viability is 2.89

---

- Tested on: NKL (IL-2 2.5 ng/mL)
- measurement_protocol: drug sensitivity score (DSS) (DSS units); higher = more sensitive; extreme values may be limits of the assay
- test_context: 72 h
Record form. Attribute: drug sensitivity score. Fill in for each entry.
Write no unit; give the number alone.

# value of drug sensitivity score, NKL (IL-2 2.5 ng/mL), item CC[C@]1(O)C[C@@H]2CN(CCc3c([nH]c4ccccc34)[C@@](C(=O)OC)(c3cc4c(cc3OC)N(C)[C@H]3[C@@](O)(C(=O)OC)[C@H](OC(C)=O)[C@]5(CC)C=CCN6CC[C@]43[C@@H]65)C2)C1 [Vinblastine] (max concentration tested 1000 nM) = 29.5

# value of drug sensitivity score, NKL (IL-2 2.5 ng/mL), item COc1ncc(-c2ccc3nccc(-c4ccnnc4)c3c2)cc1NS(=O)(=O)c1ccc(F)cc1F [Omipalisib] (max concentration tested 1000 nM) = 11.4

# value of drug sensitivity score, NKL (IL-2 2.5 ng/mL), item C[C@@H]1C=C2C(=O)O[C@@H]3CC[C@H](C1)[C@]23O [Galiellalactone] (max concentration tested 25000 nM) = 2.18

# value of drug sensitivity score, NKL (IL-2 2.5 ng/mL), item Cc1cnc(NC(=O)Nc2cc(Br)c(C)cc2OC[C@@H]2CNCCO2)cn1 [Rabusertib] (max concentration tested 1000 nM) = 7.11

# value of drug sensitivity score, NKL (IL-2 2.5 ng/mL), item CCn1c(-c2nonc2N)nc2c(C#CC(C)(C)O)ncc(OC[C@H]3CCCNC3)c21 (max concentration tested 10000 nM) = 0

---

- Tested on: IMC-1 (IL-2 20 ng/mL)
- measurement_protocol: percent inhibition of viability; higher = more inhibition
- test_context: 72 h; 1 nM
property_name: percent inhibition of viability (%)
Could you give me the number in %? Just the number is fine.

# value of percent inhibition of viability, IMC-1 (IL-2 20 ng/mL), item CN(c1ccccc1CNc1nc(Nc2ccc3c(c2)CC(=O)N3)ncc1C(F)(F)F)S(C)(=O)=O (max concentration tested 10000 nM) = -8.05

# value of percent inhibition of viability, IMC-1 (IL-2 20 ng/mL), item CO[C@H]1C[C@@H]2CC[C@@H](C)[C@@](O)(O2)C(=O)C(=O)N2CCCC[C@H]2C(=O)O[C@H]([C@H](C)C[C@@H]2CC[C@@H](OC(=O)C(C)(CO)CO)[C@H](OC)C2)CC(=O)[C@H](C)/C=C(\C)[C@@H](O)[C@@H](OC)C(=O)[C@H](C)C[C@H](C)/C=C/C=C/C=C/1C [Temsirolimus] (max concentration tested 100 nM) = -25.1

# value of percent inhibition of viability, IMC-1 (IL-2 20 ng/mL), item COc1cccc2c1c(O)c(C(=O)N(C)c1ccc(C(F)(F)F)cc1)c(=O)n2C [Tasquinimod] (max concentration tested 10000 nM) = -0.7

# value of percent inhibition of viability, IMC-1 (IL-2 20 ng/mL), item CCn1c(-c2nonc2N)nc2cnc(Oc3cccc(NC(=O)c4ccc(OCCN5CCOCC5)cc4)c3)cc21 (max concentration tested 10000 nM) = -0.83

# value of percent inhibition of viability, IMC-1 (IL-2 20 ng/mL), item Cc1cc(C(=O)NOCCO)c(Nc2ccc(I)cc2F)n(C)c1=O [AZD-8330] (max concentration tested 10000 nM) = -6.12

# value of percent inhibition of viability, IMC-1 (IL-2 20 ng/mL), item COc1cc(Nc2ncc3c(n2)-c2ccc(Cl)cc2C(c2c(F)cccc2OC)=NC3)ccc1C(=O)O [Alisertib] (max concentration tested 10000 nM) = -9.95
